System: K-562
Assay: In vitro cytostatic effect (SRB): K-562, Leukemia
Details: read-out: LC50, 48-hour incubation
value-type: CC50

[[record]]
molecule = "CCCCCCCCCCCCCCCCCCOC(COP(=O)(O)OCC1OC(n2cc(F)c(=O)[nH]c2=O)CC1O)COP(=O)(O)OCC1OC(n2ccc(N)nc2=O)C(O)C1O (racemic)"
result = "> 100 µM"


Supply reported CC50 belonging to this molecule: Nc1ccn(C2CCC(COP(=O)(O)OCC(O)COP(=O)(O)OCC3OC(n4cc(F)c(=O)[nH]c4=O)CC3O)O2)c(=O)n1 (racemic) > 100 µM

###

Parameter: CC50. Scope: all listed entries.
System: OVCAR-8
Experiment: In vitro cytostatic effect (SRB): OVCAR-8, Ovarian cancer
Conditions: read-out: LC50, 48-hour incubation

[[record]]
molecule = "CCCCCCCCCCCCCCCCCCOC(COP(=O)(O)OCC1OC(n2cc(F)c(=O)[nH]c2=O)CC1O)COP(=O)(O)OCC1OC(n2ccc(N)nc2=O)C(O)C1O (racemic) [NSC 698688-A/1]"
result = "> 100 µM"


Okay, next one:
Supply reported CC50 belonging to this molecule: Nc1ccn(C2CCC(COP(=O)(O)OCC(O)COP(=O)(O)OCC3OC(n4cc(F)c(=O)[nH]c4=O)CC3O)O2)c(=O)n1 (racemic) [NSC 704533] > 100 µM
